- test details: LTEA_HepaRG_LDH_cytotoxicity: Cytotoxicity Assessment in the Life Technologies and Expression Analysis (LTEA) Assay (AID 2283563)
Active and inactive are the calls of the source. The calls were made as follows: active = hit-call score of the fitted dose curve at least 0.9, where 1 is the maximum; inconclusive = response in the unintended direction; inactive = score below 0.9.
The categories you may choose from are active, inactive

These solved cases illustrate the format of a correct answer.
>>> class("COc1ccc(C(=CC(=O)N2CCOCC2)c2ccc(Cl)cc2)cc1OC")
"inactive"
>>> class("COP(=O)(NC(C)=O)SC (configuration not stated)")
"inactive"

# input # lookup: test call for CCOP(=O)(SC(C)CC)N1CCSC1=O (configuration not stated)
# output inactive

# input What do we get for CCOC(=O)CC(SP(=O)(OC)OC)C(=O)OCC (configuration not stated) ?
# output inactive

# input What do we get for CCOP(=S)(OCC)Oc1ccc2c(C)c(Cl)c(=O)oc2c1 ?
# output inactive

# input What do we get for CSc1nc(NC(C)C)nc(NC(C)C)n1 ?
# output inactive

# input What do we get for CC(C)[C@H](C(=O)O[C@H](C#N)c1cccc(Oc2ccccc2)c1)c1ccc(Cl)cc1 ?
# output inactive

# input What do we get for CSC1=N[C@@](C)(c2ccccc2)C(=O)N1Nc1ccccc1 ?
# output active

# input What do we get for CCCOCC(=Nc1ccc(Cl)cc1C(F)(F)F)n1ccnc1 ?
# output active
